Could you please report measured Ret for the items listed next?
- Species: Rattus norvegicus
- METHOD: Open TG-GATES - Regimen: Single
- Assay type: toxicity, organism-based, Sprague-Dawley
- Parameters: regimen Single, gender Male, age 6 weeks
- TEST_CONTEXT: in vivo, po, 10 mg/kg, 24 h, tissue Blood, route gavage, dose level Low

For record CC1=C(/C=C/C(C)=C/C=C/C(C)=C/CO)C(C)(C)CCC1 the listed Ret is 7.5%

For record CC(C)OC(=O)C(C)(C)Oc1ccc(C(=O)c2ccc(Cl)cc2)cc1 [FENOFIBRATE] the listed Ret is 8.6%

For record CN(C)CCCN1c2ccccc2CCc2ccc(Cl)cc21 the listed Ret is 7.7%

For record CN(C)CCCN1c2ccccc2CCc2ccccc21 the listed Ret is 7.4%

For record CN(C)CCN(Cc1cccs1)c1ccccn1 the listed Ret is 7.2%

====

- Species: Rattus norvegicus
- METHOD: Open TG-GATES - Regimen: Single
- Assay type: toxicity, organism-based, Sprague-Dawley
- Set-up: regimen Single, gender Male, age 6 weeks
- TEST_CONTEXT: in vivo, po, 100 mg/kg, 9 h, tissue Blood, route gavage, dose level Low
ASSAY_METRIC: APTT (s)
Return type: number; implicit unit s.

For record COC1=CC(=O)C[C@@H](C)[C@]12Oc1c(Cl)c(OC)cc(OC)c1C2=O the listed APTT is 18.1

For record NC(N)=Nc1nc(CSCCC(N)=NS(N)(=O)=O)cs1 the listed APTT is 18.3

For record COc1ccc2[nH]c([S+]([O-])Cc3ncc(C)c(OC)c3C)nc2c1 (centres undefined) the listed APTT is 20.7

For record CCOC(=O)CCC(=O)O[C@H]1[C@H](O[C@@H]2[C@@H](C)[C@H](O[C@H]3C[C@@](C)(OC)[C@@H](O)[C@H](C)O3)[C@@H](C)C(=O)O[C@H](CC)[C@@](C)(O)[C@H](O)[C@@H](C)C(=O)[C@H](C)C[C@@]2(C)O)O[C@H](C)C[C@@H]1N(C)C [ERYTHROMYCIN ETHYLSUCCINATE] the listed APTT is 23.3

====

- Organism: Rattus norvegicus
- METHOD: Open TG-GATES - Regimen: Daily Repeat
- Type: toxicity, organism-based, Sprague-Dawley
- Design: regimen Daily Repeat, gender Male, age 6 weeks
- TEST_CONTEXT: in vivo, po, 300 mg/kg, […], tissue Plasma, route gavage, dose level Middle, time 7 day
ASSAY_METRIC: CRE
Report field: quantity (unit follows the number).

For record NC(N)=Nc1nc(CSCCC(N)=NS(N)(=O)=O)cs1 [FAMOTIDINE] the listed CRE is 0.4 mg/dL

For record COc1ccc2[nH]c([S+]([O-])Cc3ncc(C)c(OC)c3C)nc2c1 (stereo not given) [OMEPRAZOLE] the listed CRE is 0.4 mg/dL

For record COC1=CC(=O)C[C@@H](C)[C@]12Oc1c(Cl)c(OC)cc(OC)c1C2=O [GRISEOFULVIN] the listed CRE is 0.4 mg/dL

For record CCOC(=O)CCC(=O)O[C@H]1[C@H](O[C@@H]2[C@@H](C)[C@H](O[C@H]3C[C@@](C)(OC)[C@@H](O)[C@H](C)O3)[C@@H](C)C(=O)O[C@H](CC)[C@@](C)(O)[C@H](O)[C@@H](C)C(=O)[C@H](C)C[C@@]2(C)O)O[C@H](C)C[C@@H]1N(C)C [ERYTHROMYCIN ETHYLSUCCINATE] the listed CRE is 0.2 mg/dL

For record CCOc1ccc(NC(=O)CC(C)O)cc1 (stereo not given) [BUCETIN] the listed CRE is 0.2 mg/dL
